- MEASURED TARGET: T1, soluble murine CD25 (murine, UniProt P01590 22-236, limits assumed)
- T1 construct: also called soluble CD25; mouse CD25
- T1 sequence (looked up): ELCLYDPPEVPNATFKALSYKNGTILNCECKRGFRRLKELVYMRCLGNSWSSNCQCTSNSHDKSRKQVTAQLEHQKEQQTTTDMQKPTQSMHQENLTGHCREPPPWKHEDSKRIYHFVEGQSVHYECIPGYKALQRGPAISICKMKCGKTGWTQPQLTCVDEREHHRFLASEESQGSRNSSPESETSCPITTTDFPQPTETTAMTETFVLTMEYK
- PROTOCOL SUMMARY: yeast surface display, titration with soluble murine CD25
METRIC NAME: binding result

binder="mIL-2 QQ 6.2-10 (ligand, Reversion mutant) APTSSSTSSSTAEAQQQQQQQQQQQQHLEQLLMDLQELLSRMEDHRNLRLPRMLTFKFYLPEQATELEDLQCLEDELEPLRQVLDLTQSKSFQLEDAENFISNIRVTVVKLKGSDNTFECQFDDEPATVVDFLRRWIAFCQSIISTSPQ" metric_name="binding result" observed_measurement=binds
binder="mIL-2 QQ 6.2-13 (ligand, Reversion mutant) APTSSSTSSSTAEAQQQQQQQQQQQQHLEQLLMDLQELLSRMEDHRNLRLPRMLTFKFYLPEQATELKDLQCLEDELEPLRQVLDLTQSKSFQLEDAENFISNIRVTVVKLKGSDNTFECQFDDEPATVVDFLRRWIAFCQSIISTSPQ" metric_name="binding result" observed_measurement=binds
binder="mIL-2 QQ 6.2-8 (ligand, Reversion mutant) APTSSSTSSSTAEAQQQQQQQQHLEQLLMDLQELLSRMEDHRNLRLPRMLTFKFYLPKQATELEDLQCLEDELEPLRQVLDLTQSKSFQLEDAENFISNIRVTVVKLKGSDNTFECQFDDEPATVVDFLRRWIAFCQSIISTSPR" metric_name="binding result" observed_measurement=binds
